System: MCF-7 (breast)
Assay: MTT cytotoxicity test, MCF-7
Type: cell-based
Settings: Homo sapiens, MCF7, incubation 72 hours, read-out: IC50 values (µM) for individual cell lines MCF-7 (breast)
VALUE KIND: IC50 (µM)

compound="CN(Cc1cnc2nc(N)nc(N)c2n1)c1ccc(C(=O)N[C@@H](CCC(=O)O)C(=O)O)cc1 [MTX, Methotrexate]" reported=9.61

Reference source for all entries: patent EP4352072B1
